# assay-text: self-splicing fitness, log relative to wild type (ln ratio); higher = more splicing; Tetrahymena group I intron in knt gene, E. coli kanamycin selection, DiMSum; sequences stand for … in CUCUCU…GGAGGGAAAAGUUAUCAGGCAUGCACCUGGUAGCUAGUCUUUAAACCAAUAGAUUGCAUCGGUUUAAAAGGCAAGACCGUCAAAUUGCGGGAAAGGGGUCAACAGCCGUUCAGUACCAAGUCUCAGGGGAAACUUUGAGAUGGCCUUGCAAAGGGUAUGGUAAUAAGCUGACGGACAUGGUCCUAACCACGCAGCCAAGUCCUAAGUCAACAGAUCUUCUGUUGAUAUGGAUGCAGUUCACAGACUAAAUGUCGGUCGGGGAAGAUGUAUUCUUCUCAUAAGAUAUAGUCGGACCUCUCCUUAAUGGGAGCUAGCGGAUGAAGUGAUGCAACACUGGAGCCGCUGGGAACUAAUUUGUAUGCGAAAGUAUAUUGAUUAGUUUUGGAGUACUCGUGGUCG;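 note: selection with 25 µg/mL kanamycin versus none on LB agar overnight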
# condition-parameters: 37 °C
Use 1 (yes) when the recorded self-splicing fitness (ln) is no lower than -0.8; use 0 (no) when it is lower.

Some entries whose results are on file:
[
  {
    "residue-sequence": "GAUCAGCAAUAUUACGCCUA",
    "class-assignment": "1 (yes)"
  },
  {
    "residue-sequence": "AACCAGCAAUAUUACGAUUU",
    "class-assignment": "1 (yes)"
  },
  {
    "residue-sequence": "AACGAGCAAUAUUACGUUCG",
    "class-assignment": "0 (no)"
  },
  {
    "residue-sequence": "CUCGAGCAAUAUUACGACAU",
    "class-assignment": "0 (no)"
  },
  {
    "residue-sequence": "AGCUAGCAAUAUUACGUGUG",
    "class-assignment": "0 (no)"
  },
  {
    "residue-sequence": "UCAAAGCAAUAUUACGUCGU",
    "class-assignment": "0 (no)"
  },
  {
    "residue-sequence": "AAAAAGCAAUAUUACGAUGC",
    "class-assignment": "0 (no)"
  },
  {
    "residue-sequence": "GUAUAGCAAUAUUACGUAAC",
    "class-assignment": "0 (no)"
  },
  {
    "residue-sequence": "UUCCAGCAAUAUUACGCUCU",
    "class-assignment": "0 (no)"
  },
  {
    "residue-sequence": "AGCGAGCAAUAUUACGGUAU",
    "class-assignment": "0 (no)"
  }
]

Now let's try a different one.
Query: Quick check, self-splicing fitness (ln) >= -0.8? GAACAGCAAUAUUACGAGUU
Response: 0 (no)

* * *

# assay-text: self-splicing fitness, log relative to wild type (ln ratio); higher = more splicing; Tetrahymena group I intron in knt gene, E. coli kanamycin selection, DiMSum; sequences stand for … in CUCUCU…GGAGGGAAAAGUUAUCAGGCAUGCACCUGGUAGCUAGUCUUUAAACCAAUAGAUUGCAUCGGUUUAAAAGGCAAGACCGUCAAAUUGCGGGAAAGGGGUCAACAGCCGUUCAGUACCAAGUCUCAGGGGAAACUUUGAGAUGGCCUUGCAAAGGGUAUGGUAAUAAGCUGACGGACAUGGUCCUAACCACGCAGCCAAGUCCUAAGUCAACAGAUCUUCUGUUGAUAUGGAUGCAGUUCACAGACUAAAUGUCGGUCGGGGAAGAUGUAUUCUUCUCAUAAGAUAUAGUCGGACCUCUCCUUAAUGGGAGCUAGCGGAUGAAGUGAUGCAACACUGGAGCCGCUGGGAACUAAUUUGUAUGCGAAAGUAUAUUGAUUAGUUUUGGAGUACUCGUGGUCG
# condition-parameters: 37 °C
Use 1.0 when the recorded self-splicing fitness (ln) is no lower than -1; use 0.0 when it is lower.

Some entries whose results are on file:
[
  {
    "residue-sequence": "AAGCAGCAAUAUUACGUAGC",
    "class-assignment": 0.0
  },
  {
    "residue-sequence": "CUCUAGCAAUAUUACGCUAC",
    "class-assignment": 0.0
  },
  {
    "residue-sequence": "UGACAGCAAUAUUACGGAGG",
    "class-assignment": 0.0
  },
  {
    "residue-sequence": "ACGAAGCAAUAUUACGUCAC",
    "class-assignment": 0.0
  }
]

Query: Quick check, self-splicing fitness (ln) >= -1? CACUAGCAAUAUUACGGUUC
Response: 0.0

Query: Quick check, self-splicing fitness (ln) >= -1? CCAUAGCAAUAUUACGGGCA
Response: 0.0

Query: Quick check, self-splicing fitness (ln) >= -1? AUGGAGCAAUAUUACGCAAG
Response: 0.0

* * *

# assay-text: self-splicing fitness, log relative to wild type (ln ratio); higher = more splicing; Tetrahymena group I intron in knt gene, E. coli kanamycin selection, DiMSum; sequences stand for … in CUCUCU…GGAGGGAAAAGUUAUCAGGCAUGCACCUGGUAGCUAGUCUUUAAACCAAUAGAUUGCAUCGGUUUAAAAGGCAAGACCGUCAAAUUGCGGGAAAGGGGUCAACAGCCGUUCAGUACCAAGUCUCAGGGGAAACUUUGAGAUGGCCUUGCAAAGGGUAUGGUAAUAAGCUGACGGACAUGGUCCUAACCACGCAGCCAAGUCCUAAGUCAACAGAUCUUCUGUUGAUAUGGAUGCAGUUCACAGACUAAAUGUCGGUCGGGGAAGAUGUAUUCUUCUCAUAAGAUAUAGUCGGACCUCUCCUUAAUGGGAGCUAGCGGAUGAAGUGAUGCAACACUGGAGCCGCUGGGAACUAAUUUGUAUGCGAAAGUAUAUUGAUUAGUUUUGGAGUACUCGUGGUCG
# condition-parameters: 37 °C
Use y when the recorded self-splicing fitness (ln) is no lower than -1; use n when it is lower.

Some entries whose results are on file:
[
  {
    "residue-sequence": "AAUGAGCAAUAUUACGUGGU",
    "class-assignment": "n"
  },
  {
    "residue-sequence": "UACGAGCAAUAUUACGCCGU",
    "class-assignment": "n"
  },
  {
    "residue-sequence": "AUCCAGCAAUAUUACGCGCU",
    "class-assignment": "n"
  },
  {
    "residue-sequence": "UUACAGCAAUAUUACGGAUC",
    "class-assignment": "n"
  },
  {
    "residue-sequence": "CGCGAGCAAUAUUACGACGG",
    "class-assignment": "y"
  },
  {
    "residue-sequence": "CGAAAGCAAUAUUACGGUUA",
    "class-assignment": "n"
  },
  {
    "residue-sequence": "CCGAAGCAAUAUUACGUAAA",
    "class-assignment": "n"
  },
  {
    "residue-sequence": "AGUAAGCAAUAUUACGUCGC",
    "class-assignment": "n"
  }
]

Query: Quick check, self-splicing fitness (ln) >= -1? CCUCAGCAAUAUUACGGCGA
Response: n

Query: Quick check, self-splicing fitness (ln) >= -1? UAGCAGCAAUAUUACGUAGA
Response: n

* * *

# assay-text: self-splicing fitness, log relative to wild type (ln ratio); higher = more splicing; Tetrahymena group I intron in knt gene, E. coli kanamycin selection, DiMSum; sequences stand for … in CUCUCU…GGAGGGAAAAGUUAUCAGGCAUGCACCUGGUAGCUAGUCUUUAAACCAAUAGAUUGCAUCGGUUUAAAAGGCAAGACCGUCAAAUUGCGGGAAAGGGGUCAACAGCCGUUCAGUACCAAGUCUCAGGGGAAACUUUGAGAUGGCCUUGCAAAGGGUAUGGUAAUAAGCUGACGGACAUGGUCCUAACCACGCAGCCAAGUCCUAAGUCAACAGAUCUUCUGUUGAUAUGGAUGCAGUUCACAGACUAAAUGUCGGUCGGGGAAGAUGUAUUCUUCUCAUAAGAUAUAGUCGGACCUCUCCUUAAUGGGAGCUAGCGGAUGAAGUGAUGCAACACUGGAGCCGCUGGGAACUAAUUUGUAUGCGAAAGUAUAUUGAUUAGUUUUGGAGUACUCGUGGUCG
# condition-parameters: 37 °C
property: self-splicing fitness (ln)
Could you respond with only the numeric value?

[
  {
    "residue-sequence": "UUGCAGCAAUAUUACGCCAU",
    "self-splicing fitness (ln)": -2.49
  },
  {
    "residue-sequence": "AACAAGCAAUAUUACGCAUU",
    "self-splicing fitness (ln)": -1.32
  },
  {
    "residue-sequence": "UCUCAGCAAUAUUACGUUAG",
    "self-splicing fitness (ln)": -2.34
  },
  {
    "residue-sequence": "CUACAGCAAUAUUACGGUUG",
    "self-splicing fitness (ln)": -1.73
  },
  {
    "residue-sequence": "UUGAAGCAAUAUUACGGAGG",
    "self-splicing fitness (ln)": -0.64
  }
]

Query: Consider the sequence shown here: AGGUAGCAAUAUUACGUUCA What is its recorded self-splicing fitness (ln)?
Response: -0.256

Query: Consider the sequence shown here: GCAGAGCAAUAUUACGUACC What is its recorded self-splicing fitness (ln)?
Response: -0.941

Query: Consider the sequence shown here: CGGUAGCAAUAUUACGAUUG What is its recorded self-splicing fitness (ln)?
Response: -0.0537

Query: Consider the sequence shown here: ACCUAGCAAUAUUACGACCU What is its recorded self-splicing fitness (ln)?
Response: 0.455

Query: Consider the sequence shown here: UCUUAGCAAUAUUACGGCCG What is its recorded self-splicing fitness (ln)?
Response: -0.349

Query: Consider the sequence shown here: GCACAGCAAUAUUACGUAUA What is its recorded self-splicing fitness (ln)?
Response: -0.413
